Tested on: Tetrahymena pyriformis
protocol_notes: 48 h IGC50 (-log10 mol/L); higher = more toxic
In this section we review reported 48 h IGC50 (-log10 mol/L) values for a set of compounds.
The answer should be a number; do not append a unit.

Here is how some compounds turned out for 48 h IGC50 (-log10 mol/L).
[
  {
    "compound": "CC(C)(Br)[N+](=O)[O-]",
    "48 h IGC50 (-log10 mol/L)": 4.85
  },
  {
    "compound": "Nc1ccc([N+](=O)[O-])cn1",
    "48 h IGC50 (-log10 mol/L)": 3.22
  }
]

In: Query the reported 48 h IGC50 (-log10 mol/L) for Tetrahymena pyriformis; item: N#CCBr
Out: 5.23

In: Query the reported 48 h IGC50 (-log10 mol/L) for Tetrahymena pyriformis; item: Nc1ncc([N+](=O)[O-])cn1
Out: 2.57

In: Query the reported 48 h IGC50 (-log10 mol/L) for Tetrahymena pyriformis; item: O=C(Oc1ccccc1)c1ccccc1
Out: 4.35

In: Query the reported 48 h IGC50 (-log10 mol/L) for Tetrahymena pyriformis; item: ClC/C=C/CCl
Out: 3.77

In: Query the reported 48 h IGC50 (-log10 mol/L) for Tetrahymena pyriformis; item: OCC(O)CBr (centres undefined)
Out: 1.79

In: Query the reported 48 h IGC50 (-log10 mol/L) for Tetrahymena pyriformis; item: CNCC(O)CO (centres undefined)
Out: 1.47

In: Query the reported 48 h IGC50 (-log10 mol/L) for Tetrahymena pyriformis; item: CCOC(=O)C#Cc1ccccc1
Out: 4.67

In: Query the reported 48 h IGC50 (-log10 mol/L) for Tetrahymena pyriformis; item: CCCCCCCCCCCC(C)=O
Out: 5.12

In: Query the reported 48 h IGC50 (-log10 mol/L) for Tetrahymena pyriformis; item: COc1ccc(C(C)=O)c(O)c1
Out: 3.55

In: Query the reported 48 h IGC50 (-log10 mol/L) for Tetrahymena pyriformis; item: CCCCCCCCCCOC(=O)CC#N
Out: 4.7

In: Query the reported 48 h IGC50 (-log10 mol/L) for Tetrahymena pyriformis; item: CCOc1cccc(C=O)c1O
Out: 3.85

In: Query the reported 48 h IGC50 (-log10 mol/L) for Tetrahymena pyriformis; item: c1cncnc1
Out: 1.25

In: Query the reported 48 h IGC50 (-log10 mol/L) for Tetrahymena pyriformis; item: CC#Cc1ccccc1
Out: 3.19

In: Query the reported 48 h IGC50 (-log10 mol/L) for Tetrahymena pyriformis; item: OCCc1ccc(Cl)cc1
Out: 3.32

In: Query the reported 48 h IGC50 (-log10 mol/L) for Tetrahymena pyriformis; item: O=[N+]([O-])c1cccc2ccccc12
Out: 4

In: Query the reported 48 h IGC50 (-log10 mol/L) for Tetrahymena pyriformis; item: CN1CCNCC1
Out: 2.04

In: Query the reported 48 h IGC50 (-log10 mol/L) for Tetrahymena pyriformis; item: O=[N+]([O-])/C=C/c1ccco1
Out: 5.04

In: Query the reported 48 h IGC50 (-log10 mol/L) for Tetrahymena pyriformis; item: Nc1cc(Cl)c(Cl)cc1[N+](=O)[O-]
Out: 4.66

In: Query the reported 48 h IGC50 (-log10 mol/L) for Tetrahymena pyriformis; item: O=[N+]([O-])c1cc(Cl)ccc1Cl
Out: 4.13

---

Tested on: Pimephales promelas
protocol_notes: 96 h LC50 (-log10 mol/L); higher = more toxic
In this section we review reported 96 h LC50 (-log10 mol/L) values for a set of molecules.
The answer should be a number; do not append a unit.

[
  {
    "molecule": "C1C2CC3CC1CC(C2)C3",
    "96 h LC50 (-log10 mol/L)": 5.68
  },
  {
    "molecule": "CC1(C)CCC(C)(C)O1",
    "96 h LC50 (-log10 mol/L)": 2.88
  },
  {
    "molecule": "C=C(C)[C@H]1CC=C(C)CC1",
    "96 h LC50 (-log10 mol/L)": 5.28
  },
  {
    "molecule": "CCCCCCCCS(=O)C(C)Cc1ccc2c(c1)OCO2 (stereo not given)",
    "96 h LC50 (-log10 mol/L)": 5.64
  }
]

In: Item under review: C=CCN=C=S . Reported 96 h LC50 (-log10 mol/L)?
Out: 6.06

In: Item under review: CC(C)(C)c1cc(C(C)(C)C)c(O)c(C(C)(C)C)c1 . Reported 96 h LC50 (-log10 mol/L)?
Out: 6.63

In: Item under review: CCc1cccc(C)c1N(C(=O)CCl)C(C)COC (stereo not given) . Reported 96 h LC50 (-log10 mol/L)?
Out: 4.54

In: Item under review: CCCCC(C)=O . Reported 96 h LC50 (-log10 mol/L)?
Out: 2.37

In: Item under review: CCOc1cc(C=O)ccc1O . Reported 96 h LC50 (-log10 mol/L)?
Out: 3.28

In: Item under review: ClCc1ccccc1 . Reported 96 h LC50 (-log10 mol/L)?
Out: 4.4

In: Item under review: O=[N+]([O-])c1ncccc1O . Reported 96 h LC50 (-log10 mol/L)?
Out: 2.92

In: Item under review: Cc1ccccc1 . Reported 96 h LC50 (-log10 mol/L)?
Out: 3.43

In: Item under review: c1ccc(SSc2ccccc2)cc1 . Reported 96 h LC50 (-log10 mol/L)?
Out: 6.3

In: Item under review: O[C@H]1C[C@@H]2CC[C@H]1C2 . Reported 96 h LC50 (-log10 mol/L)?
Out: 2.69

In: Item under review: CCCCN(CC)c1c([N+](=O)[O-])cc(C(F)(F)F)cc1[N+](=O)[O-] . Reported 96 h LC50 (-log10 mol/L)?
Out: 6.53

In: Item under review: O=Cc1ccco1 . Reported 96 h LC50 (-log10 mol/L)?
Out: 3.57

In: Item under review: Cc1cc(O)ccc1Cl . Reported 96 h LC50 (-log10 mol/L)?
Out: 4.42

In: Item under review: CCCCC(=O)O . Reported 96 h LC50 (-log10 mol/L)?
Out: 3.12

In: Item under review: CNC(=O)Oc1ccc(N(C)C)c(C)c1 . Reported 96 h LC50 (-log10 mol/L)?
Out: 5.03

In: Item under review: Oc1ccccc1O . Reported 96 h LC50 (-log10 mol/L)?
Out: 4.29

In: Item under review: CCN(CC)c1ccc(C=O)c(O)c1 . Reported 96 h LC50 (-log10 mol/L)?
Out: 4.56

In: Item under review: Cc1cc(C)c(C#N)c(=O)[nH]1 . Reported 96 h LC50 (-log10 mol/L)?
Out: 2.98

In: Item under review: CCCOC(C)=O . Reported 96 h LC50 (-log10 mol/L)?
Out: 3.23

In: Item under review: O=[N+]([O-])OCC(CO[N+](=O)[O-])O[N+](=O)[O-] . Reported 96 h LC50 (-log10 mol/L)?
Out: 4.92

In: Item under review: O=C1C2CC3CC(C2)CC1C3 . Reported 96 h LC50 (-log10 mol/L)?
Out: 3.39

In: Item under review: CCCN(CCC)c1c([N+](=O)[O-])cc(C(F)(F)F)cc1[N+](=O)[O-] . Reported 96 h LC50 (-log10 mol/L)?
Out: 6.5

In: Item under review: Cc1cccc(Cl)c1C#N . Reported 96 h LC50 (-log10 mol/L)?
Out: 4

---

System: Pimephales promelas
protocol_notes: 96 h LC50 (-log10 mol/L); higher = more toxic
96 h LC50 (-log10 mol/L) below 4 gives not met; 96 h LC50 (-log10 mol/L) at or above it gives met.

Would you please look over these solved cases?
[
  {
    "compound": "Nc1cccc(OCc2ccccc2)c1",
    "class": "met"
  },
  {
    "compound": "Cc1nnc(N)nc1C",
    "class": "not met"
  },
  {
    "compound": "C=Cc1ccccc1",
    "class": "not met"
  }
]

Continue with the compound presented below.
In: Determine whether this compound has 96 h LC50 (-log10 mol/L) no lower than 4: CCCCCC
Out: met

---

Test system: Tetrahymena pyriformis
protocol_notes: 48 h IGC50 (-log10 mol/L); higher = more toxic
# binning rule on 48 h IGC50 (-log10 mol/L): low: < 3; medium: ≥ 3 and < 4; high: ≥ 4

[
  {
    "compound": "CCc1ccc(C=O)cc1",
    "system_under_test": "Tetrahymena pyriformis",
    "class": "medium"
  }
]

In: Bin? O=C(CBr)C(=O)CBr
Out: high

In: Bin? C=CC(=O)OC1CCCCC1
Out: medium

In: Bin? CCOC(=O)C(C)Cl (stereo not given)
Out: low

In: Bin? CCCCOC(=O)c1ccc(O)cc1
Out: high
